System: glioblastoma cell line T98G
Assay: MTT assay of cellular proliferation, T98G
Type: cell-based
Details: Homo sapiens, read-out: EC50: Concentration that inhibits 50% of proliferation
parameter: EC50

- COC(=O)c1cc(Oc2ncccc2-c2ccncc2)cc(C(=O)OC)c1 [Compound 1]: 1 to 1000 nM
- COC(=O)c1cc(Oc2ncccc2-c2ccnc(N)n2)cc(C(=O)OC)c1 [Compound 21]: 1000 to 10000 nM
- COC(=O)c1cc(OC)cc(Oc2ncccc2-c2ccnc(N)n2)c1 [Compound 23]: 10000 to 30000 nM
- COC(=O)c1cc(OC)cc(Oc2ncccc2-c2ccncc2)c1 [Compound 2]: 1 to 1000 nM
- COc1cc(OC)cc(Oc2ncccc2-c2ccnc(N)n2)c1 [Compound 19]: 1 to 1000 nM
